- PROTOCOL_SUMMARY: physchem
- Type: physicochemical
- RUN_PARAMETERS: aqueous buffer
MEASUREMENT_NAME: solubility thermodynamic at 30 min

Input line: Could you tell me which solubility thermodynamic at 30 min is on file for CCCC(=O)N[C@H](CC(=O)N[C@@H](CC(=O)N[C@@H](CCCCN)CC(=O)N[C@@H](CC(=O)N[C@@H](CCCCN)CC(=O)N[C@@H](CC(=O)N[C@@H](CCCCN)CC(=O)N[C@@H](CC(N)=O)CC(C)C)CC(C)C)CC(C)C)CC(C)C)CC(C)C ?
Output line: ~20 µM
